src = the supplement of paper PMC7724964

# targetDesc: T1, DOK2 146-252 IRS (domain begin residue: 146, domain end residue: 252), O60496
# T1 chain: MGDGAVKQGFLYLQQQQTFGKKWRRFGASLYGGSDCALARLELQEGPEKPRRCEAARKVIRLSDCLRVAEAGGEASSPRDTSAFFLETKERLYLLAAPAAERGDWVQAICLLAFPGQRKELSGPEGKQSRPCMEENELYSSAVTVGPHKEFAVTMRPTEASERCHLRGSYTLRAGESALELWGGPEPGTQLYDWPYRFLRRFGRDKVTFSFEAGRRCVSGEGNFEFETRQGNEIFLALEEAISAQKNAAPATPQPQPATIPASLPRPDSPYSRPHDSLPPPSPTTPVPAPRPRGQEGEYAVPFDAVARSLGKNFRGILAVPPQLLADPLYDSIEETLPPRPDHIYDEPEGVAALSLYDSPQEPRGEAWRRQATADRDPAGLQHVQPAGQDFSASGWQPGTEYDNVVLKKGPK
# experimentalDetails: phage ELISA signal ratio (GST-PRM binding over GST background); higher = stronger binding of peptide-phage to the PRM
# key: entry, value: phage ELISA signal ratio
measuredEndpoint: phage ELISA signal ratio

>>> result("HLTGQEGDWIWHWLEN")
10.4
>>> result("EWMWMDNPGFHMTEAT")
13.6
>>> result("VVNEQHGWKWMILEHE")
20.7
>>> result("DEWTWHFVEQPWHMAG")
7.99
